# Assay text: chemical genetic growth profiling, strain panel (AID 1159580);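 note: tested at 20 µM; growth read once vehicle control cultures reached saturation at 30 °C; 1 = growth at the plate median or of vehicle wells; lower values mean less growth of the strain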
# Run conditions: S. cerevisiae deletion strains, growth OD, locus YDL040C, strain nat1, active compounds read low
The whole screen tested about 5,500 compounds, of which about 2,000 (36%) were called active. Another 18% or so got no clear call; they are omitted. The list shows a part of the results.
Experimental readout: normalized growth
Please respond with just the number, no unit label.

>>> print(df.to_string())
                                   molecule  reported_result
0                         NC(=O)c1ccc(N)nc1            0.988
1  C#C[C@]1(O)CCC2C3CCc4cc(O)ccc4C3CC[C@@]21C (some centres not stated)             1.03
2                                  Nc1nccs1            0.986
3  C[C@]12CCC3c4ccc(OS(=O)(=O)O)cc4CCC3C1CCC2=O (some centres not stated)                1
4  C#C[C@]1(O)CCC2C3CCc4cc(OC)ccc4C3CC[C@@]21C (some centres not stated)            0.982

Prompt: Item CN(C)CCCO[C@H]1[C@@H](C(O)CO)OC2OC(C)(C)O[C@@H]21 (some centres not stated) has what recorded normalized growth?
Response: 0.995

Prompt: Item "Nc1ccc(S(=O)(=O)Nc2nccs2)cc1" has what recorded normalized growth?
Response: 1.02

* * *

Measured normalized growth by item
# Assay text: chemical genetic growth profiling, strain panel (AID 1159580);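 note: tested at 20 µM; growth read once vehicle control cultures reached saturation at 30 °C; 1 = growth at the plate median or of vehicle wells; lower values mean less growth of the strain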
# Run conditions: S. cerevisiae deletion strains, growth OD, locus YML124C, strain tub3, active compounds read low
In all, about 5,500 compounds went through this assay and about 2,000 (36%) were called active. Not shown: some 18% with an inconclusive outcome. The list shows a part of the results.
Could you respond with only the numeric value?

Prompt: Quick check: normalized growth of "COP(=S)(OC)Oc1ccc(SC)c(C)c1" ?
Response: 0.985

Prompt: # query: normalized growth of entry CN(Cc1cnc2nc(N)nc(N)c2n1)c1ccc(C(=O)NC(CCC(=O)O)C(=O)O)cc1 (stereo not drawn)
Response: 0.974

Prompt: Looking for the measured normalized growth of CC[C@@H](C(=O)O)[C@@H]1O[C@@H]([C@@H](C)[C@H](O)[C@H](C)C(=O)[C@H](CC)[C@H]2O[C@]3(C=C[C@@H](O)[C@]4(CC[C@@](C)(C5CC[C@](O)(CC)[C@H](C)O5)O4)O3)[C@H](C)C[C@@H]2C)[C@@H](C)C[C@H]1C (stereo partly drawn) , can you help?
Response: 0.385

Prompt: Suppose we examine the compound "Nc1nc2ncc(CNc3ccc(C(=O)N[C@@H](CCC(=O)O)C(=O)O)cc3)nc2c(=O)[nH]1" ; what normalized growth value has been reported?
Response: 0.991

Prompt: Given the compound "COc1ccccc1-c1cc(=O)c2c(OC)cccc2o1" , what is its reported normalized growth?
Response: 0.983

Prompt: Any idea what normalized growth was measured for Nc1nc2c(c(=O)[nH]1)N(C=O)C(CNc1ccc(C(=O)N[C@@H](CCC(=O)O)C(=O)O)cc1)CN2 (stereo partly drawn) ?
Response: 0.991

Prompt: Tell me the measured normalized growth of NC(=O)c1cc[n+](CC2=C(C(=O)O)N3C(=O)C(NC(=O)C(c4ccccc4)S(=O)(=O)[O-])C3SC2)cc1 (stereo not drawn) , please.
Response: 0.982

Prompt: Can you look up the measured normalized growth of Cc1cccc(CN2CCN(C(c3ccccc3)c3ccc(Cl)cc3)CC2)c1 (stereo not drawn) for me?
Response: 0.977
